B1: Cytoplasmic polyadenylation element-binding protein 2, residues 513 to 575; numbered along this chain, Q7Z5Q1 (parent)
chain: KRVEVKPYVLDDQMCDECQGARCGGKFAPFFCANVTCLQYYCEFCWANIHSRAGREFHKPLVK

Variants of: B1
experiment-description: abundance fitness (aPCA) (normalised: wild type 0, dead -1); higher = more abundant; growth selection in yeast, the domain comes from the species named
run-conditions: Homo sapiens
t means recorded abundance fitness is -0.07 or above; f means it is below -0.07.

// below: answered variants
- mutant-designation: "D12C"
  class-label: "f"
- mutant-designation: "C42A"
  class-label: "f"
- mutant-designation: "C32L"
  class-label: "f"

Incoming: Entry A53S : is its abundance fitness no less than -0.07?
Outgoing: t

Incoming: Given R2L , state whether its abundance fitness is at least -0.07.
Outgoing: f
